Known fraction unbound at 2 h, 2 µM of a selection of compounds
tested on: melanin; assay: Compound binding to melanin; assay type: in vitro ADME; settings: cuttlefish (Sepia officinalis), melanin suspension (1 mg/mL), percentage of free drug (not bound to melanin), 2 µM compound, melanin 1 mg/mL in PBS pH 7.4, 37°C

Solved cases below.
# CHEM_SMILES, EXPERIMENTAL_TARGET, OBSERVATION_TYPE, RECORDED_RESULT
records = [
    ("CNC(=O)c1cc(F)ccc1Sc1ccc2c(/C=C/c3ccc(OCCN4CCCC4)cn3)n[nH]c2c1", "melanin", "fraction unbound at 2 h, 2 µM", "> 0.05"),
    ("CN(C)CCOc1ccc(/C=C/c2n[nH]c3cc(Sc4ccccc4C(=O)NC4CC4)ccc23)nc1", "melanin", "fraction unbound at 2 h, 2 µM", "0.01 to 0.05"),
]

Record summary for CNC(=O)c1ccccc1Sc1ccc2c(/C=C/c3ccnc(OCCN4CCCC4)c3)n[nH]c2c1 : reported fraction unbound at 2 h, 2 µM = 0.01 to 0.05

Notebook: CCNC(=O)c1cc(F)ccc1Sc1ccc2c(/C=C/c3cnn(CCCN4CCCC4)c3)n[nH]c2c1 , fraction unbound at 2 h, 2 µM read as > 0.05

Looking up CNC(=O)c1ccccc1Sc1ccc2c(/C=C/c3ccc(OCCN4CCOCC4)cn3)n[nH]c2c1 , I found its fraction unbound at 2 h, 2 µM recorded as 0.01 to 0.05

Quick note, fraction unbound at 2 h, 2 µM for CNC(=O)c1ccccc1Sc1ccc2c(C#Cc3cc(OCCN4CCCC4)ccn3)n[nH]c2c1 landed at 0.01 to 0.05

For CNC(=O)c1ccccc1Sc1ccc2c(C#Cc3ccc(OCCN4CCCC4)cn3)n[nH]c2c1 the compound record lists fraction unbound at 2 h, 2 µM as ≤ 0.01

----------
compounds and their reported IC50
molecular target: VEGFR2 (Homo sapiens, UniProt P35968)
Sequence (P35968 20-1356): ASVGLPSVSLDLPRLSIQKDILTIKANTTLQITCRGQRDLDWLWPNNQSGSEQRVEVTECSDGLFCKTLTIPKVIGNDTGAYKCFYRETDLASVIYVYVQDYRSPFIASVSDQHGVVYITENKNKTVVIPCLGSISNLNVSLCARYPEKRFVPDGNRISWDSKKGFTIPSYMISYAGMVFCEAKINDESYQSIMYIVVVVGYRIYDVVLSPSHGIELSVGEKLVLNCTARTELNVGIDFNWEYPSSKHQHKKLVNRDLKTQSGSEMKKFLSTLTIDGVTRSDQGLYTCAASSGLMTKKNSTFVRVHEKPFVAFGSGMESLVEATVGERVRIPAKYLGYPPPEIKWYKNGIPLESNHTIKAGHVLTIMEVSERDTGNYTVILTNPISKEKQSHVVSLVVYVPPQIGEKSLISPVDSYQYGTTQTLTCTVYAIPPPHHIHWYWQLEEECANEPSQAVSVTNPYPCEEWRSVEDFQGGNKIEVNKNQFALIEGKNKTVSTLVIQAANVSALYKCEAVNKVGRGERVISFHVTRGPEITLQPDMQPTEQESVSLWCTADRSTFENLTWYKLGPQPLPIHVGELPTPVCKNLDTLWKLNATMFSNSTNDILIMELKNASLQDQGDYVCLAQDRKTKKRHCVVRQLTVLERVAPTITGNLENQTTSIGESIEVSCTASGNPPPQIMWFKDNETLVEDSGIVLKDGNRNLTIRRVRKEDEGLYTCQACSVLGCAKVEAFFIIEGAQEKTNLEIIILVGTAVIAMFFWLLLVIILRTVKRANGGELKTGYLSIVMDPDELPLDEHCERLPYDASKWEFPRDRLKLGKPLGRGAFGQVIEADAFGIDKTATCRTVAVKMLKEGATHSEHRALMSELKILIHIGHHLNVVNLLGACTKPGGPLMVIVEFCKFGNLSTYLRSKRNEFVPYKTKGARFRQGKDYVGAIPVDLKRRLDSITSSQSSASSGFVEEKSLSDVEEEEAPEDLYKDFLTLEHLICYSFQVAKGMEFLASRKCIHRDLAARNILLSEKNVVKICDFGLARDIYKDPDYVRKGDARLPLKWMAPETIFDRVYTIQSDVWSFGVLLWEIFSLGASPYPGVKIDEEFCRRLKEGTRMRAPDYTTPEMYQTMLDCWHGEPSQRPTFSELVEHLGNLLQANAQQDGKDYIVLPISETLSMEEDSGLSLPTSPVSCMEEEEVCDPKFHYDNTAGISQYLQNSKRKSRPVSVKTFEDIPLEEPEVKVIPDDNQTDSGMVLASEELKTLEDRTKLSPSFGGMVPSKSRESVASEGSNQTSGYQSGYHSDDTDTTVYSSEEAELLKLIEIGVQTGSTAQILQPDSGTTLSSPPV

# COMPOUND, OBSERVATION_TYPE, RECORDED_RESULT
records = [
    ("CCNC(=O)c1cccc(F)c1Sc1ccc2c(/C=C/c3cc(CN4CCCC4)ccn3)n[nH]c2c1 [Compound I-114]", "IC50", "> 100 nM"),
    ("CNC(=O)c1cccc(F)c1Sc1ccc2c(/C=C/c3ccc(CN4CCCC4)cn3)n[nH]c2c1 [Compound I-68]", "IC50", "1 to 10 nM"),
    ("CNC(=O)c1ccccc1Sc1ccc2c(NC(=O)NCCN3CCN(C)CC3)n[nH]c2c1 [Compound I-31]", "IC50", "> 100 nM"),
    ("CNC(=O)c1ccccc1Sc1ccn2c(/C=C/c3ccccn3)ncc2c1 [Compound I-27]", "IC50", "> 100 nM"),
]

For the compound CNC(=O)c1ccccc1Sc1ccc2c(/C=C/c3ccccn3)ncn2c1 [Compound I-26] , the measured IC50 on VEGFR2 (Homo sapiens, UniProt P35968) was > 100 nM

Reading of IC50 for CNC(=O)c1ccccc1Sc1ccc2c(/C=C/c3ccc(OC[C@@H]4CCN(C)C4)cn3)n[nH]c2c1 [Compound I-39] with VEGFR2 (Homo sapiens, UniProt P35968): ≤ 1 nM

The compound O=C(NC1CC1)c1cc(F)ccc1Sc1ccc2c(/C=C/c3cc(CCCN4CCCC4)ccn3)n[nH]c2c1 [Compound I-119] , tested on VEGFR2 (Homo sapiens, UniProt P35968), showed IC50 of ≤ 1 nM

# IC50 measured on VEGFR2 (Homo sapiens, UniProt P35968) for item O=C(NC1CC1)c1ccccc1Sc1ccc2c(/C=C/c3cccc(CCN4CCCC4)n3)n[nH]c2c1 [Compound I-134] = 1 to 10 nM
